- System: HCT-15 colon
- assay: NCI tumour cell line growth inhibition, 48 h
experimental readout: TGI

compound: NCCNC1=CC(=O)c2nc3ccccc3c3ccnc1c23
target or test system: HCT-15 colon
experimental readout: TGI
result: > 49.2 µM

Using HCT-15 colon as the test system, report measured TGI of `CC1(C)S[C@H](c2ccccc2C(=O)O)N[C@@H]1CC(=O)O` .
> 100 µM

Using HCT-15 colon as the test system, report measured TGI of `COC(=O)[C@@]1(C)CCC[C@]2(C)[C@H]3Cc4occc4[C@H](C)[C@@H]3CC[C@@]12O` .
> 100 µM

Using HCT-15 colon as the test system, report measured TGI of `CCN(CC)CCNC(=O)c1cc2cc(NC(=O)c3cc4cc(N)ccc4[nH]3)ccc2[nH]1` .
> 100 µM

Using HCT-15 colon as the test system, report measured TGI of O=P1(N(CCCl)CCCl)Oc2ccc(Cl)cc2Sc2c(ccc(Cl)c2Cl)O1 (stereo not drawn) .
> 100 µM

Using HCT-15 colon as the test system, report measured TGI of `COC(=O)C1=C(C(=O)OC)SC(=C(Cl)C(=S)Oc2ccccc2N)S1` .
> 50 µM

Using HCT-15 colon as the test system, report measured TGI of `OCn1nc2c(C3OCCO3)cc3ccccc3n2c1=S` .
> 100 µM

Using HCT-15 colon as the test system, report measured TGI of `O=C(Cc1ccccc1CCO)NCCc1ccccc1` .
> 100 µM

Using HCT-15 colon as the test system, report measured TGI of COc1ccc(C2Oc3ccc(Cl)cc3C=C2[N+](=O)[O-])cc1OC (stereo not drawn) .
3.09 µM

Using HCT-15 colon as the test system, report measured TGI of `CN(C)CCCN1N=Nc2cccc3cccc1c23` .
> 57.5 µM

Using HCT-15 colon as the test system, report measured TGI of `C#C[C@@]1(O)[C@@H](CO)O[C@@H](n2cc(Br)c3c(N)ncnc32)[C@@H]1O` .
> 100 µM

====

Measured TGI values are reported for all entries that follow.
- Test system: LOX IMVI melanoma
- assay: NCI tumour cell line growth inhibition, 48 h

molecule: C[C@]12CCC(=O)C[C@H]1CCC(O)[C@@H]2Br (stereo not given in full)
TGI: > 100 µM

Return value of TGI for input CC(CO)CCNc1ncnc2c1ncn2CCC#N (stereo not given) , no commentary.
> 100 µM

Return value of TGI for input `N#CCC(=O)N1CCCOCCC1` , no commentary.
> 100 µM

Return value of TGI for input `COc1ccc(C(=O)c2cc(OC)c(OC)c(OC)c2)cc1OC(=O)C(Cl)(Cl)Cl` , no commentary.
> 100 µM

Return value of TGI for input `ClC(Cl)c1nc(-c2ccccc2)n2nc(-c3ccccc3)cc2n1` , no commentary.
> 100 µM

Return value of TGI for input O=C(NC1C(O)C(O)C(CO)OC1n1cc(F)c(=O)[nH]c1=O)OCc1ccccc1 (stereo not given) , no commentary.
> 100 µM

Return value of TGI for input `O=C1CCc2c(Oc3ccc4c(c3)[C@H]3[C@@H](O4)[C@@H]3c3nc4ccc(C(F)(F)F)cc4[nH]3)ccnc2N1` , no commentary.
4.65 µM

Return value of TGI for input `COc1ccc(OC)c(/C=C/C(=O)N/N=C/c2ccccc2)c1` , no commentary.
> 100 µM

Return value of TGI for input `CCn1nc(-c2ccc(C(=O)OC)cc2)nc2c(=O)n(C)c(=O)nc1-2` , no commentary.
1.5 µM

Return value of TGI for input C=CC(C)c1cccc(C=O)c1O (stereo not given) , no commentary.
> 100 µM
